experiment: Half life in rat liver microsomes; format: ADME, Microsome
assay-endpoint: half-life (h)

smiles-code: C=C[C@@H]1C[C@]1(NC(=O)[C@@H]1C[C@@H](Oc2cc(OCC)nc3c(Cl)cccc23)CN1C(=O)[C@@H](CC(=O)Nc1ccccc1)C(C)(C)C)C(=O)NS(=O)(=O)C1CC1
half-life (h): 2.67
--
smiles-code: C=C[C@@H]1C[C@]1(NC(=O)[C@@H]1C[C@@H](Oc2cc(-c3csc(NC(C)C)n3)nc3c(Br)c(OC)ccc23)CN1C(=O)[C@@H](NC(=O)OC1CCCC1)C(C)(C)C)C(=O)O
half-life (h): 3.5
--
smiles-code: C=C[C@@H]1C[C@]1(NC(=O)[C@@H]1C[C@@H](Oc2cc(-c3csc(NC(C)C)n3)nc3c(Br)c(OC)ccc23)CN1C(=O)[C@@H](CC(=O)NC1CCCC1)C(C)(C)C)C(=O)O
half-life (h): 3.13

Taken from ChEMBL document CHEMBL2401615.
